biological target: Raw264.7 p110 γ (Mus musculus, UniProt Q9JHG7); construct: reduction of phospho-AKT in stimulated RAW 264.7 cells; endogenous in cells; host or cells: RAW264.7 macrophages; assay: Raw264.7 p110 γ cellular assay (phospho-AKT); assay type: cell-based; details: serum-starved RAW264.7 cells stimulated with C5a
Sequence (Q9JHG7 whole entry): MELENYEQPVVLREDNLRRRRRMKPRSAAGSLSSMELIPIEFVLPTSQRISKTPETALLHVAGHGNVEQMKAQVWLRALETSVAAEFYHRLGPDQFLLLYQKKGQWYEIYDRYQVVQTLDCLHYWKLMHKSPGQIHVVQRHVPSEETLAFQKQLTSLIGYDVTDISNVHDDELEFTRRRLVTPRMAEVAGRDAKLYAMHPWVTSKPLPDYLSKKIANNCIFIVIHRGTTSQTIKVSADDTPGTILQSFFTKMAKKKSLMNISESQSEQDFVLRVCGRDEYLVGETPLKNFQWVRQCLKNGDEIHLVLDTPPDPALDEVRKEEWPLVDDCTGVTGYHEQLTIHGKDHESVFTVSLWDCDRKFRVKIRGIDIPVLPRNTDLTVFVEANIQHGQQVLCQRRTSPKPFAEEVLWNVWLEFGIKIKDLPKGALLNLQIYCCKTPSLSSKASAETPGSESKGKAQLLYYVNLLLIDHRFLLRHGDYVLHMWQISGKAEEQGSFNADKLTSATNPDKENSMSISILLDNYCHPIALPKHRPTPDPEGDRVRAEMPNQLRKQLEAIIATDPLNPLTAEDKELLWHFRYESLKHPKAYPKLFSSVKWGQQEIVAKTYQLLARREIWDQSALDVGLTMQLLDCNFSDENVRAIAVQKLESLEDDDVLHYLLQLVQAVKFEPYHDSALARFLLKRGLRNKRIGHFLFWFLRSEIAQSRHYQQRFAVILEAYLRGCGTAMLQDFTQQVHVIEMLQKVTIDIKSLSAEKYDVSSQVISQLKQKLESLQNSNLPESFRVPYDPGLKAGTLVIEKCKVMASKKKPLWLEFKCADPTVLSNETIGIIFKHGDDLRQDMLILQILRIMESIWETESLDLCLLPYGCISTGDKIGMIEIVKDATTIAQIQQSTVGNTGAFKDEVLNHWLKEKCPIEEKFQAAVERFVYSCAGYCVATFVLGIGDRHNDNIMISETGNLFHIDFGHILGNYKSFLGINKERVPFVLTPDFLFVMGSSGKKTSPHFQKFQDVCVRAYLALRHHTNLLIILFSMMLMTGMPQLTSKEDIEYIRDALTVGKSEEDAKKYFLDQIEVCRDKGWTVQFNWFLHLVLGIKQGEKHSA
measure_name: IC50

{"compound": "C[C@H](NC(=O)c1c(N)nn2cccnc12)c1cc2cccc(Cl)c2c(=O)n1C1CCCCC1", "IC50": "< 100 nM"}
{"compound": "C[C@H](NC(=O)c1nc(Br)cnc1N)c1cc2cccc(Cl)c2c(=O)n1-c1ccccc1", "IC50": "> 10000 nM"}
{"compound": "C[C@H](NC(=O)c1nc(-c2cccc(S(=O)(=O)N(C)C)c2)cnc1N)c1cc2cccc(Cl)c2c(=O)n1-c1ccccc1", "IC50": "100 to 1000 nM"}

// query What does the data say about its IC50? Entry: C[C@H](NC(=O)c1cnn2cccnc12)c1cc2cccc(Cl)c2c(=O)n1-c1ccc(F)cc1
// result 100 to 1000 nM

// query Next: C[C@H](NC(=O)c1cnc2cccnn12)c1cc2cccc(Cl)c2c(=O)n1-c1ccc(F)cc1
// result 100 to 1000 nM

// query Next: C[C@H](NC(=O)c1csc2cccnc12)c1cc2cccc(Cl)c2c(=O)n1-c1ccccc1
// result 1000 to 10000 nM

// query Next: C[C@H](NC(=O)c1c(N)nn2cccnc12)c1cc2cccc(C#CCNC(=O)[C@@H]3CCC(=O)O3)c2c(=O)n1-c1ccccc1
// result < 100 nM

// query Next: C[C@H](NC(=O)c1c(N)nn2cccnc12)c1cc2cccc(C#CCNC(=O)C3CC(=O)CC(=O)C3)c2c(=O)n1-c1ccccc1
// result 100 to 1000 nM

// query Next: COc1cc(-c2cccc3cc([C@H](C)NC(=O)c4c(N)nn5cccnc45)n(-c4ccccc4)c(=O)c23)ccn1
// result < 100 nM

// query Next: C[C@H](NC(=O)c1c(N)nn2cccnc12)c1cc2cccc(C#CCNC(=O)C3CCC(=O)C3)c2c(=O)n1-c1ccccc1 (stereo partly shown)
// result < 100 nM

###

Item-by-item account of IC50
molecular target: Raw264.7 p110 γ (Mus musculus); construct: reduction of phospho-AKT in stimulated RAW 264.7 cells; endogenous in cells; experiment: Raw264.7 p110 γ cellular assay (phospho-AKT); details: serum-starved RAW264.7 cells stimulated with C5a

// below: answered compounds
{"compound_structure": "C[C@H](NC(=O)c1c(N)ncc2cccnc12)c1cc2cccc(Cl)c2c(=O)n1-c1ccccc1", "result": "< 100 nM"}
{"compound_structure": "C[C@H](NC(=O)c1c(N)nn2cccnc12)c1cc2cccc(-c3cncc(NS(C)(=O)=O)c3)c2c(=O)n1-c1ccccc1", "result": "100 to 1000 nM"}
{"compound_structure": "C[C@H](NC(=O)c1c(N)nn2cccnc12)c1cc2cccc(Cl)c2c(=O)n1-c1ccc(F)c(F)c1", "result": "< 100 nM"}
{"compound_structure": "C[C@H](NC(=O)c1c(N)nn2cccnc12)c1cc2cccc(C#N)c2c(=O)n1-c1ccccc1", "result": "< 100 nM"}
{"compound_structure": "C[C@H](NC(=O)c1c(N)nn2cccnc12)c1cc2cccc(Cl)c2c(=O)n1CCN(C)C", "result": "100 to 1000 nM"}

// query What does the data say about its IC50? Entry: C[C@H](NC(=O)c1c(N)nn2cccnc12)c1cc2cccc(C#CCN)c2c(=O)n1-c1ccccc1
// result 100 to 1000 nM

// query Next: COc1cc(-c2cccc3cc([C@H](C)NC(=O)c4c(N)nn5ccc(C)nc45)n(-c4ccccc4)c(=O)c23)ccn1
// result < 100 nM

// query Next: C[C@H](NC(=O)c1nc(-c2cccc(NS(C)(=O)=O)c2)c(N)nc1N)c1cc2cccc(Cl)c2c(=O)n1-c1ccccc1
// result < 100 nM
